Attribution: patent US20180111893A1

test system: Staphylococcus aureus (MSSA) biofilms; assay: Minimum biofilm eradication concentration (MBEC), regrowth assay; format: cell-based; parameters: unit not given here; settings: Table 5; regrowth OD under 0.1 (italics: OD < 0.5)
A collection of compounds and their measured MBEC MSSA

compound	result
CCCCCCCCCC[N+](C)(C)CCCN(CC[N+](C)(C)CCCCCCCCCC)CC[N+](C)(C)CCCCCCCCCC [T-10,10,10]	100
CCCCCCCCCCCCCCCCCCCC[N+]1(C)CC[N+](C)(C)CC[N+](C)(C)CC1 [C-20,1,1]	>200
CCCCCCCCCCC[N+](C)(C)CCN(CC[N+](C)(C)CCCCCCCCCCC)CC[N+](C)(C)CCCCCCCCCCC [T-11,11,11]	200

Query (compound): CCCCCCCCCCCCCCCC[N+]1(C)CCN(C)CCN(C)CC1.[Br-] [C-16,0,0] ; field requested: MBEC MSSA >200

Query (compound): CCCCCCCCCCC[N+](C)(C)CCN1CC[N+](C)(CCCCCCCCCCC)CC1 [P-11,0,11] ; field requested: MBEC MSSA 100

Query (compound): CCCCCCCCCCCCCCCC[N+]1(C)CC[N+](C)(C)CC[N+](C)(C)CC1 [C-16,1,1] ; field requested: MBEC MSSA 200

Query (compound): CCCCCCCCCCCCCCCCCCCC[N+]1(C)CCN(C)CCN(C)CC1.[Br-] [C-20,0,0] ; field requested: MBEC MSSA >200

Query (compound): CCCCCCCCCCCCCCCCCC[N+]1(C)CC[N+](C)(C)CC[N+](C)(C)CC1 [C-18,1,1] ; field requested: MBEC MSSA >200

Query (compound): CCCCCCCCCCCC[N+](C)(C)CCN1CC[N+](C)(CCCCCCCCCCCC)CC1 [P-12,0,12] ; field requested: MBEC MSSA 200

Query (compound): CCCCCCCCCCCCCCCCCC[N+]1(C)CCN(C)CCN(C)CC1.[Br-] [C-18,0,0] ; field requested: MBEC MSSA 200

###

A collection of compounds and their measured MIC PA
tested on: Pseudomonas aeruginosa (PAO1); assay: Minimum inhibitory concentration (MIC); type: cell-based; conditions: Table 6
Field format: number, assumed µM, no unit text.

smi	target	unit spec	MIC PA
C=CC[N+](CCC[N+](C)(C)CCCCCCCCCCCC)(CCC[N+](C)(C)CCCCCCCCCCCC)CCC[N+](C)(C)CCCCCCCCCCCC	Pseudomonas aeruginosa (PAO1)	µM	2
CCCCCCCCCC[N+](C)(C)CCCN(CCC[N+](C)(C)CCCCCCCCCC)CCC[N+](C)(C)CCCCCCCCCC	Pseudomonas aeruginosa (PAO1)	µM	2
C=CC[N+](CCC[N+](C)(C)CCCCCCCCCCCCC)(CCC[N+](C)(C)CCCCCCCCCCCCC)CCC[N+](C)(C)CCCCCCCCCCCCC	Pseudomonas aeruginosa (PAO1)	µM	4
C=CC[N+](CCC[N+](C)(C)CCCCCCCC)(CCC[N+](C)(C)CCCCCCCC)CCC[N+](C)(C)CCCCCCCC	Pseudomonas aeruginosa (PAO1)	µM	125

Query (compound): CCCCCCCCCCCCCCCCCC[N+](C)(C)CCCN(CCC[N+](C)(C)CCCCCCCCCCCCCCCCCC)CCC[N+](C)(C)CCCCCCCCCCCCCCCCCC ; field requested: MIC PA 63

Query (compound): CCCCCCCCCCCC[N+](C)(C)CCC[N+](CCC[N+](C)(C)CCCCCCCCCCCC)(CCC[N+](C)(C)CCCCCCCCCCCC)Cc1ccccc1 ; field requested: MIC PA 2

Query (compound): C=CC[N+](CCC[N+](C)(C)CCCCCCCCCCCCCCCC)(CCC[N+](C)(C)CCCCCCCCCCCCCCCC)CCC[N+](C)(C)CCCCCCCCCCCCCCCC ; field requested: MIC PA 63

Query (compound): CCCCCCCCCC[N+](C)(C)CCC[N+](C)(CCC[N+](C)(C)CCCCCCCCCC)CCC[N+](C)(C)CCCCCCCCCC ; field requested: MIC PA 2

Query (compound): CCCCCCCCCCCCCCCC[N+](C)(C)CCCN(CCC[N+](C)(C)CCCCCCCCCCCCCCCC)CCC[N+](C)(C)CCCCCCCCCCCCCCCC.[Br-].[Br-].[Br-] ; field requested: MIC PA 32
